Exercise: state measured pest or weed control at 17.5 g/ha for each of the compounds provided.
Tested on: ABUTH: velvetleaf (Abutilon theophrasti)
experimentSummary: Post-Emergent Test I herbicidal activity
Type: in vivo
conditionContext: Abutilon theophrasti, post-emergence, 336 h, Table 4, 17.5 g ai/ha, read-out: Visual Growth Reduction (%)-14 Days after Application ABUTH
Give bare numbers, in %.

Answered cases to consult:
[
  {
    "structureString": "COC(=O)c1nc(Cl)cc(N)c1OC",
    "unit": "%",
    "numericValue": 40
  },
  {
    "structureString": "COc1c(N)cc(-c2ccc(Cl)cc2)nc1C(=O)O",
    "unit": "%",
    "numericValue": 80
  },
  {
    "structureString": "COC(=O)c1nc(-c2ccc(Cl)cc2F)cc(N)c1OC",
    "unit": "%",
    "numericValue": 75
  }
]

Please state, for each entry, its recorded pest or weed control at 17.5 g/ha.
1. COc1c(C(=O)O)nc(-c2ccc(Cl)c(OC)c2F)c(F)c1N
2. COc1c(C(=O)O)nc(-c2ccc(Cl)cc2)c(F)c1N

-- reply
1. 100
2. 95

----------
Test system: ECHCG: barnyardgrass (Echinochloa crus-galli)
experimentSummary: Post-Emergent Test I herbicidal activity
Assay type: in vivo
conditionContext: post-emergence, 336 h, Table 3, 140 g ai/ha, read-out: Visual Growth Reduction (%)-14 Days after Application ECHCG
Exam item: assign condition met to entries whose pest or weed control at 140 g/ha is below 80% and condition not met to entries at or above 80%. Note that a value of exactly 80% receives condition not met.

[
  {
    "compound": "COC(=O)c1nc(-c2cc(F)c(I)cc2F)c(F)c(N)c1OC",
    "classification": "condition not met"
  },
  {
    "compound": "COC(=O)c1nc(-c2ccc(I)c(F)c2F)c(F)c(N)c1OC",
    "classification": "condition met"
  },
  {
    "compound": "COC(=O)c1nc(-c2ccc(Cl)c(OC)c2F)cc(NC(C)=O)c1OC",
    "classification": "condition met"
  },
  {
    "compound": "COC(=O)c1nc(-c2ccc(Cl)c(OC)c2F)c(F)c(N)c1SC",
    "classification": "condition met"
  },
  {
    "compound": "C=Cc1nc(C(=O)O)c(OC)c(N)c1F",
    "classification": "condition met"
  }
]

-- ask Check if pest or weed control at 140 g/ha falls below 80% for COC(=O)c1nc(-c2ccc(Cl)c(F)c2)c(F)c(N)c1OC .
-- reply condition not met

-- ask Check if pest or weed control at 140 g/ha falls below 80% for COC(=O)c1nc(Cl)c(F)c(N)c1SC .
-- reply condition met

-- ask Check if pest or weed control at 140 g/ha falls below 80% for COc1c(C(=O)O)nc(-c2ccc(C(F)(F)F)nc2)c(F)c1N .
-- reply condition not met

-- ask Check if pest or weed control at 140 g/ha falls below 80% for COC(=O)c1nc(-c2ccc(C#N)cc2)c(F)c(N)c1OC .
-- reply condition met

----------
Exercise: state measured pest or weed control at 280 g/ha for each of the molecules provided.
Test system: CHEAL: lambsquarters (Chenopodium album)
experimentSummary: Post-Emergent Test I herbicidal activity
Type: in vivo
conditionContext: Chenopodium album, post-emergence, 336 h, Table 3, 280 g ai/ha, read-out: Visual Growth Reduction (%)-14 Days after Application CHEAL
Give bare numbers, in %.

[
  {
    "structureString": "CCOC(=O)c1nc(-c2ccc(Cl)cc2F)cc(N)c1OCC(F)(F)F",
    "pest or weed control at 280 g/ha / %": 50
  },
  {
    "structureString": "COC(=O)c1nc(Cl)c(Cl)c(N)c1OC",
    "pest or weed control at 280 g/ha / %": 90
  },
  {
    "structureString": "COc1c(Cl)ccc(-c2cc(N)c(OC(F)F)c(C(=O)O)n2)c1F",
    "pest or weed control at 280 g/ha / %": 85
  },
  {
    "structureString": "Nc1cc(-c2ccc(Cl)cc2F)nc(C(=O)O)c1OCC(F)(F)F",
    "pest or weed control at 280 g/ha / %": 25
  },
  {
    "structureString": "C=Cc1nc(C(=O)OC)c(OC)c(N)c1F",
    "pest or weed control at 280 g/ha / %": 70
  },
  {
    "structureString": "COC(=O)c1nc(Cl)cc(N)c1OC",
    "pest or weed control at 280 g/ha / %": 100
  },
  {
    "structureString": "CCc1nc(C(=O)O)c(OC)c(N)c1F",
    "pest or weed control at 280 g/ha / %": 80
  },
  {
    "structureString": "CCOC(=O)c1nc(-c2ccc(Cl)c(OC)c2F)cc(N)c1OC(F)F",
    "pest or weed control at 280 g/ha / %": 30
  },
  {
    "structureString": "CNc1cc(-c2ccc(Cl)cc2)nc(C(=O)OC)c1N",
    "pest or weed control at 280 g/ha / %": 95
  },
  {
    "structureString": "CCc1nc(C(=O)OC)c(OC)c(N)c1F",
    "pest or weed control at 280 g/ha / %": 90
  }
]

Would you kindly look at the next entry?
-- ask Endpoint output: pest or weed control at 280 g/ha of COC(=O)c1nc(Cl)c(F)c(N)c1OC . Value?
-- reply 100
